B1: tRNA (parent)
chain: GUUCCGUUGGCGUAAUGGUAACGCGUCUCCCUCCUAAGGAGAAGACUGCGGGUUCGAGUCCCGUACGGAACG

variants of: B1; assay: yeast fitness relative to wild type (ratio to wild type); higher = fitter; tRNA-Arg(CCU), competitive growth, 37 C, YPD
Variants at the floor of the assay were thinned out.
observationType: yeast fitness

>  <change>
C34G A40C G48A

>  <observationType>
yeast fitness

>  <inequalityOperator>
≤

>  <measuredResult>
0.5

$$$$
>  <change>
G6C A15U

>  <observationType>
yeast fitness

>  <inequalityOperator>
=

>  <measuredResult>
0.738

$$$$
>  <change>
C5U A45C G56C

>  <observationType>
yeast fitness

>  <inequalityOperator>
=

>  <measuredResult>
0.572

$$$$
>  <change>
C4A A43U

>  <observationType>
yeast fitness

>  <inequalityOperator>
=

>  <measuredResult>
0.841

$$$$
>  <change>
A36G C49U A69C

>  <observationType>
yeast fitness

>  <inequalityOperator>
=

>  <measuredResult>
0.836

$$$$
>  <change>
A14U G23C A70C

>  <observationType>
yeast fitness

>  <inequalityOperator>
=

>  <measuredResult>
0.586

$$$$
>  <change>
U7G A14G U35G A43G U59A

>  <observationType>
yeast fitness

>  <inequalityOperator>
=

>  <measuredResult>
0.669

$$$$
>  <change>
U19C A45C G48C

>  <observationType>
yeast fitness

>  <inequalityOperator>
=

>  <measuredResult>
0.57

$$$$
>  <change>
A15G C34U A40U

>  <observationType>
yeast fitness

>  <inequalityOperator>
≤

>  <measuredResult>
0.5

$$$$
>  <change>
G10A A20U A42G C60U U64A C66A G68A A69G

>  <observationType>
yeast fitness

>  <inequalityOperator>
≤

>  <measuredResult>
0.5

$$$$
>  <change>
A15G A37C

>  <observationType>
yeast fitness

>  <inequalityOperator>
=

>  <measuredResult>
0.666

$$$$
>  <change>
U8A A20U C31U A45G

>  <observationType>
yeast fitness

>  <inequalityOperator>
≤

>  <measuredResult>
0.5

$$$$
>  <change>
C5A A37G

>  <observationType>
yeast fitness

>  <inequalityOperator>
=

>  <measuredResult>
0.7

$$$$
>  <change>
G9A G10C C34A

>  <observationType>
yeast fitness

>  <inequalityOperator>
≤

>  <measuredResult>
0.5

$$$$
>  <change>
U19A U28A U53G

>  <observationType>
yeast fitness

>  <inequalityOperator>
≤

>  <measuredResult>
0.5

$$$$
>  <change>
A20C C24U A42U U59C

>  <observationType>
yeast fitness

>  <inequalityOperator>
=

>  <measuredResult>
0.619

$$$$
>  <change>
A36G A37U C61G

>  <observationType>
yeast fitness

>  <inequalityOperator>
≤

>  <measuredResult>
0.5

$$$$
>  <change>
A40G C46A

>  <observationType>
yeast fitness

>  <inequalityOperator>
=

>  <measuredResult>
1.04

$$$$
>  <change>
U19C C27A

>  <observationType>
yeast fitness

>  <inequalityOperator>
=

>  <measuredResult>
0.987

$$$$
>  <change>
C31G C55U

>  <observationType>
yeast fitness

>  <inequalityOperator>
=

>  <measuredResult>
0.683

$$$$
>  <change>
A14U U35C U53G C66G

>  <observationType>
yeast fitness

>  <inequalityOperator>
≤

>  <measuredResult>
0.5

$$$$
>  <change>
C22G G50C C55G

>  <observationType>
yeast fitness

>  <inequalityOperator>
≤

>  <measuredResult>
0.5

$$$$
>  <change>
A15U C49U

>  <observationType>
yeast fitness

>  <inequalityOperator>
=

>  <measuredResult>
0.731

$$$$
>  <change>
G25C C33A A43C G68A

>  <observationType>
yeast fitness

>  <inequalityOperator>
≤

>  <measuredResult>
0.5

$$$$
>  <change>
G17A C29G U47A G51A

>  <observationType>
yeast fitness

>  <inequalityOperator>
≤

>  <measuredResult>
0.5

$$$$
>  <change>
U7C G12A A20C A21G C24A C27A A36C

>  <observationType>
yeast fitness

>  <inequalityOperator>
≤

>  <measuredResult>
0.5

$$$$
>  <change>
U13G A65U

>  <observationType>
yeast fitness

>  <inequalityOperator>
=

>  <measuredResult>
0.896

$$$$
>  <change>
C5U A21C

>  <observationType>
yeast fitness

>  <inequalityOperator>
=

>  <measuredResult>
0.897

$$$$
>  <change>
G17C U28A C30A C31A

>  <observationType>
yeast fitness

>  <inequalityOperator>
=

>  <measuredResult>
0.623

$$$$
>  <change>
C49G C55A C60U C66A

>  <observationType>
yeast fitness

>  <inequalityOperator>
≤

>  <measuredResult>
0.5

$$$$
>  <change>
U26C G63A

>  <observationType>
yeast fitness

>  <inequalityOperator>
=

>  <measuredResult>
0.916

$$$$
>  <change>
A14C G23A C29U U35C G48A

>  <observationType>
yeast fitness

>  <inequalityOperator>
≤

>  <measuredResult>
0.5

$$$$
>  <change>
A14U C34G A43C A70U

>  <observationType>
yeast fitness

>  <inequalityOperator>
≤

>  <measuredResult>
0.5

$$$$
>  <change>
C22U C24A U28G

>  <observationType>
yeast fitness

>  <inequalityOperator>
=

>  <measuredResult>
0.542

$$$$
>  <change>
C24U C46U C60U

>  <observationType>
yeast fitness

>  <inequalityOperator>
=

>  <measuredResult>
0.513

$$$$
>  <change>
U2G C4U A36G A45U

>  <observationType>
yeast fitness

>  <inequalityOperator>
=

>  <measuredResult>
0.537

$$$$
>  <change>
C4A A14C U26C A36G A65U

>  <observationType>
yeast fitness

>  <inequalityOperator>
≤

>  <measuredResult>
0.5

$$$$
>  <change>
C4G U13A C29U A40C

>  <observationType>
yeast fitness

>  <inequalityOperator>
≤

>  <measuredResult>
0.5

$$$$
>  <change>
C24G C27U C62U A70U

>  <observationType>
yeast fitness

>  <inequalityOperator>
≤

>  <measuredResult>
0.5

$$$$
